Test: Tissue distribution of SDC-TRAP and degradation products in tumor-bearing mice (plasma, tumor, heart)
Format: in vivo, Female SCID Mouse (H1975)
Settings: female, SCID, mouse, in vivo; read-out: Tumor/Plasma Ratio
Measurement Label: Kp at 24 h
Answer with the value's number alone.

Inquiry: May I ask what Kp at 24 h has been recorded for CCNC(=O)c1nnc(-c2cc(C(C)C)c(O)cc2O)n1-c1ccc(C(=O)N2CCN(c3cc(C)c(OC(=O)Nc4cccc5c4CN(C4CCC(=O)NC4=O)C5=O)c(C)c3)CC2)cc1 (stereo not shown) ?
Reply text: 100

====

Assay: Artificial membrane permeability assay (PAMPA)
Conditions: Permeability (cm/s), 5 h incubation, peak area used in place of concentration, first table
Measurement Label: Papp at 5 h (×10⁻⁶ cm/s)
Please respond with the number in ×10⁻⁶ cm/s and leave the unit unwritten.

Inquiry: I would be grateful if you could share the reported Papp at 5 h for CC(C)c1cc(-c2nnc(C(=O)NCCCCCS(N)(=O)=O)n2-c2ccc(CN3CCOCC3)cc2)c(O)cc1O [SDC-TRAP-0232] .
Reply text: 0.00689

Inquiry: Recorded Papp at 5 h of CC(C)c1cc(-c2nnc(O)n2-c2ccc3c(ccn3CCOCCNC(=O)CCn3cc(F)c(=O)[nH]c3=O)c2)c(O)cc1O [SDC-TRAP-0048] , please.
Reply text: 0.0283

Inquiry: For Nc1cccc2c1CN(C1CCC(=O)NC1=O)C2=O (stereo not shown) [Lenalidomide, lenalidomide, reference compound] , what is its reported Papp at 5 h?
Reply text: 0.062

Inquiry: Given the entry COc1cccc2c1C(=O)c1c(O)c3c(c(O)c1C2=O)C[C@@](O)(C(=O)CO)C[C@@H]3O[C@H]1C[C@H](N)[C@H](O)[C@H](C)O1 [Doxorubicin, doxorubicin, reference compound] , report its measured Papp at 5 h.
Reply text: 0.0033

====

Consider the following molecules; for each one, report its Mouse (5 μM) % Remaining 1 h (37° C.) *.
Test: Mouse plasma stability (Examples 16-18)
Format: in vitro ADME
Conditions: 5 μM, 1 h, 37° C.; sum of both peaks of parent chromatogram
Kindly format the answer as number then unit.

Inquiry: Could you tell me which Mouse (5 μM) % Remaining 1 h (37° C.) * is on file for CCc1c2c(nc3ccc(O)cc13)-c1cc3c(c(=O)n1C2)COC(=O)C3(CC)OC(=O)N(C)CCOCCn1ccc2cc(-n3c(O)nnc3-c3cc(C(C)C)c(O)cc3O)ccc21 (stereo not drawn) ?
Reply text: 67%

Inquiry: # input molecule: CCc1c2c(nc3ccc(OC(=O)N(C)CCCCN4CCN(Cc5ccc(-n6c(O)nnc6-c6cc(C(C)C)c(O)cc6O)cc5)CC4)cc13)-c1cc3c(c(=O)n1C2)COC(=O)C3(O)CC (stereo not drawn) ; wanted: its Mouse (5 μM) % Remaining 1 h (37° C.) *
Reply text: 50%

Inquiry: GET /values?readout=Mouse (5 μM) % Remaining 1 h (37° C.) *&item= CCc1c2c(nc3ccc(OC(=O)N4CCN(Cc5ccc(-n6c(O)nnc6-c6cc(C(C)C)c(O)cc6O)cc5)CC4)cc13)-c1cc3c(c(=O)n1C2)COC(=O)C3(O)CC (stereo not drawn)
Reply text: 65%

====

Assay: Tissue distribution of SDC-TRAP and degradation products in tumor-bearing mice (plasma, tumor, heart)
Assay type: in vivo, Female SCID Mouse (H1975)
Details: female, SCID, mouse, in vivo, tissue distribution of SDC-TRAP-0154; 48 h; read-out: Tumor/Plasma Ratio
Measurement Label: Kp

Inquiry: State the recorded Kp for this entry: CCNC(=O)c1nnc(-c2cc(C(C)C)c(O)cc2O)n1-c1ccc(Oc2ccc(C(=O)N3CCC(C(=O)OC4(CC)C(=O)OCc5c4cc4n(c5=O)Cc5c-4nc4ccc(O)cc4c5CC)CC3)cc2)cc1 (stereo not shown)
Reply text: 26.8
